// values below are reported inhibition at 5 µM
- System: P. falciparum stage V gametocytes
- test-method-notes: microbe, parasite or virus in culture
- Parameters: BacTiter-Glo ATP luminescence viability of purified stage V gametocytes in 384-well plates, per cent inhibition versus DMSO
- study-conditions: Plasmodium falciparum, 48 h, read-out: % Inhibition
Give a bare numeral; the unit % is implied.

I'd like to know its inhibition at 5 µM. The compound in question is CCCCCCN(CCCCCC)CC(O)c1c(OC)ccc2ccccc12 (centres unmarked)
-34.9

More entries:
Using the record for CC(C)c1cc(Oc2c(I)cc(CCCc3ncc[nH]3)cc2I)ccc1O , report its inhibition at 5 µM.
-127

If you can, please state the reported inhibition at 5 µM value of Fc1ccccc1C=NNc1ccnc2ccc(C(F)(F)F)cc12 .
-68.2

What value of inhibition at 5 µM has been reported for the following compound? Nc1c2c(nc3ccc(NC(=O)c4ccc([N+](=O)[O-])cc4)cc13)CCCC2
60.6

What does the record list as inhibition at 5 µM for Oc1ccc(Cc2cc(Oc3c(I)cc(CCc4ncc[nH]4)cc3I)ccc2O)cc1 ?
59.2

* * *

- System: P. falciparum stage V gametocytes
- test-method-notes: microbe, parasite or virus in culture
- Design: BacTiter-Glo ATP luminescence viability of purified stage V gametocytes in 384-well plates, per cent inhibition versus DMSO
- study-conditions: Plasmodium falciparum, 48 h, read-out: % Inhibition
observable: inhibition at 5 µM (%)
Expressed in %, but write only the number.

Record excerpt, results attached:
Please state recorded inhibition at 5 µM (tested on P. falciparum stage V gametocytes) of CCN(CC)CCCC(C)Nc1c(-c2ccc(Br)cc2)cnc2ccccc12 (stereo not drawn) [TCMDC-142263]
26

Under P. falciparum stage V gametocytes: inhibition at 5 µM value of CCCCCC(C)C(C)c1cc(O)c2c3c(c(=O)oc2c1)CN(Cc1ccccc1)CC3 (stereo not drawn) [TCMDC-142182] ?
75.7

Next, consider the following compound.
Quick check: inhibition at 5 µM on P. falciparum stage V gametocytes, item COc1cccc(C=NNc2cc(C)nc3ccccc23)c1 [TCMDC-142183] ?
-15.9

* * *

- Test system: HepG2 cells
- test-method-notes: Cytotoxicity in HepG2 cells (intracellular ATP, ATPlite, 48 h)
- Format: cell-based, human
- study-conditions: HepG2 cells; IC50 per ratio column head; unit inferred
observable: IC50

Look up IC50: Cc1occc1C(=O)Nc1nc(-c2ccccn2)nc2ccsc12
< 1560 nM

What value of IC50 has been recorded for this entry: CC(Cc1ccc(OCCCCOc2ccccc2)cc1)NCCC1CCCN1C (stereo not drawn)
< 1560 nM

# ---- query compound ----
Reported IC50 for CCC1=C(C[C@H]2NCCc3cc(OC)c(OC)cc32)C[C@H]2c3cc(OC)c(OC)cc3CCN2C1 : what is it?
> 25000 nM

* * *

- Tested on: P. falciparum stage V gametocytes
- test-method-notes: Gametocytocidal ATP bioluminescence assay (single point 5 μM and 1 μM, dose-response)
- Format: cell-based, Plasmodium falciparum
- study-conditions: Plasmodium falciparum; P. falciparum gametocytes; average; read-out: IC50 Pf Gametocytes average, IC50 (µM) average
Rule: measured IC50 below 0.8 µM gets y; anything equal to or greater than 0.8 µM gets n.

Below, 10 molecules whose answers are already recorded.
Is it true that IC50 reported for Cc1cccc2nc(-c3ccc(-c4cccc(CNCCN5CCNCC5)c4)cc3)[nH]c12 [TCMDC-132867] is less than 0.8 µM?
n

For this molecule, is IC50 lower than 0.8 µM? COc1cccc(CC(=O)N2CCC(n3c(C)nc4ccc(C)cc43)CC2)c1 [TCMDC-124791]
y

IC50 under 0.8 µM? Item: COc1cc(NC(=O)c2sc(-c3ccc(Cl)cc3)cc2NC(=O)c2cccnc2)ccc1OCCN1CCCC1 [TCMDC-135397]
y

Consider the molecule CCN(CC)CCCOC(=O)c1ccc2c(c1)-c1ccc(C(=O)OCCCN(CC)CC)c3cccc-2c13 [TCMDC-125491] . Is its IC50 strictly less than 0.8 µM?
y

# check: IC50 < 0.8 µM for CCCCCCCN1CC[C@@H](CCCc2ccnc3ccc(OCCCCNC(N)=NO)cc23)[C@@H](CC)C1 [TCMDC-139839]
y

Record c1ccc2c(c1)cc(CNCCCN1CCN(CCCNCc3cc4ccccc4c4ccccc34)CC1)c1ccccc12 [TCMDC-137914] : is its IC50 strictly below 0.8 µM?
n

Say whether its IC50 is strictly beneath 0.8 µM. Entry: Fc1ccc(NC(=S)NN=Cc2ccccn2)cc1 [TCMDC-125521]
y

Does Fc1ccc2[nH]c(-c3cccc(-c4cccc(CNCCN5CCNCC5)c4)c3)nc2c1 [TCMDC-132860] have IC50 strictly under 0.8 µM?
y

For this molecule, is IC50 lower than 0.8 µM? COc1ccc(-c2cnc3[nH]cc(-c4ccncc4)c3c2)cc1OC [TCMDC-135853]
n

Is the reported IC50 for N=C(NCCCCC1CCCCC1)c1cccc(C(=N)NCCCCC2CCCCC2)n1 [TCMDC-137452] strictly below 0.8 µM?
y

Here is the next item to consider.
Bench note: check whether COc1cc2nc(N3CCC(CNC(=O)c4ccc(-c5ccc(-c6noc(C)n6)cc5)cc4)CC3)nc(N)c2cc1OC [TCMDC-138754] shows IC50 below 0.8 µM
y

// provenance: paper PMC4552634
